- assay_target: Tyrosine-protein phosphatase non-receptor type 1 (Homo sapiens)
- procedure_summary: Inhibition of human recombinant PTP-1B using IR5 insulin receptor residues as substrate at 10 uM after 30 mins by malachite green assay
Classify by measured inhibition: true (1) if it is equal to or exceeds 40%, false (0) if it is smaller.

INPUT: Is reported inhibition greater than or equal to 40% here: C=C1CC[C@@H]2[C@](C)(CCC[C@]2(C)C(=O)O)[C@H]1CC[C@H](C)CC(=O)O
OUTPUT: false (0)

INPUT: Is reported inhibition greater than or equal to 40% here: C=C1CC[C@H]2[C@@](C)(COC(C)=O)CCC[C@]2(C)[C@H]1CC[C@H](C)CCOC(C)=O
OUTPUT: false (0)

INPUT: Is reported inhibition greater than or equal to 40% here: C=C1CC[C@@H]2[C@](C)(CCC[C@]2(C)N=C=O)[C@H]1CC[C@H](C)C/C=N/OC(C)=O
OUTPUT: true (1)

INPUT: Is reported inhibition greater than or equal to 40% here: Cc1ccc(C(=O)Nc2ccc(S(=O)(=O)O)c3cc(S(=O)(=O)O)cc(S(=O)(=O)O)c23)cc1NC(=O)c1cccc(NC(=O)Nc2cccc(C(=O)Nc3cc(C(=O)Nc4ccc(S(=O)(=O)O)c5cc(S(=O)(=O)O)cc(S(=O)(=O)O)c45)ccc3C)c2)c1
OUTPUT: true (1)

INPUT: Is reported inhibition greater than or equal to 40% here: C=C1CC[C@H]2[C@@](C)(CO)CCC[C@]2(C)[C@H]1CC[C@H](C)CCO
OUTPUT: false (0)

INPUT: Is reported inhibition greater than or equal to 40% here: C=C1CC[C@@H]2[C@](C)(CCC[C@]2(C)N=C=O)[C@H]1CC[C@H](C)CN=C=O
OUTPUT: true (1)

INPUT: Is reported inhibition greater than or equal to 40% here: C=C1CC[C@@H]2[C@](C)(CCC[C@]2(C)NC(N)=O)[C@H]1CC[C@H](C)CCO
OUTPUT: true (1)

---

- assay_target: Tyrosine-protein phosphatase non-receptor type 1 (Homo sapiens)
- procedure_summary: Inhibition of human recombinant PTP-1B using IR5 insulin receptor residues as substrate at 10 uM after 30 mins by malachite green assay
Entries and their inhibition values follow.
Unit % implied. Number only.

Take a look at these entries with their results.
>>> readout_number("C=C1CC[C@@H]2[C@](C)(CCC[C@]2(C)C(=O)O)[C@H]1CC[C@H](C)C/C=N/O")
40.1
>>> readout_number("C=C1CC[C@@H]2[C@](C)(CCC[C@]2(C)C(=O)O)[C@H]1CC[C@H](C)CC=O")
19.9
>>> readout_number("C=C1CC[C@@H]2[C@](C)(CCC[C@]2(C)C(=O)O)[C@H]1CC[C@H](C)C/C=N/OC(C)=O")
43.5

INPUT: What is its inhibition for Tyrosine-protein phosphatase non-receptor type 1 (Homo sapiens)? Entry: C=C1CC[C@@H]2[C@](C)(CCC[C@]2(C)C(=O)OCC)[C@H]1CC[C@H](C)CCO
OUTPUT: 23.1

INPUT: What is its inhibition for Tyrosine-protein phosphatase non-receptor type 1 (Homo sapiens)? Entry: C=C1CC[C@@H]2[C@](C)(CCC[C@]2(C)NC(N)=O)[C@H]1CC[C@H](C)CNC(N)=O
OUTPUT: 65.8

---

- assay_target: Tyrosine-protein phosphatase non-receptor type 1 (Homo sapiens) (UniProt P18031)
- procedure_summary: Inhibition of human recombinant PTP-1B using IR5 insulin receptor residues as substrate at 100 uM after 30 mins by malachite green assay
parameter: inhibition (%)
Unit % implied. Number only.

Take a look at these entries with their results.
>>> readout_number("C=C1CC[C@@H]2[C@](C)(CCC[C@]2(C)NC(N)=O)[C@H]1CC[C@H](C)CNC(N)=O")
79.2
>>> readout_number("C=C1CC[C@@H]2[C@](C)(CCC[C@]2(C)C(=O)O)[C@H]1CC[C@H](C)CCO")
71.1
>>> readout_number("C=C1CC[C@@H]2[C@](C)(CCC[C@]2(C)NC(N)=O)[C@H]1CC[C@H](C)C/C=N/OC(C)=O")
82.2
>>> readout_number("C=C1CC[C@@H]2[C@](C)(CCC[C@]2(C)NC(N)=O)[C@H]1CC[C@H](C)CCO")
87.2

API: the following record is the query input.
INPUT: Requested field: inhibition. Item: C=C1CC[C@@H]2[C@](C)(CCC[C@]2(C)NC(N)=O)[C@H]1CC[C@H](C)C/C=N/O
OUTPUT: 69.2

---

Entries and their inhibition values follow.
- assay_target: Tyrosine-protein phosphatase non-receptor type 1 (Homo sapiens) (UniProt P18031)
- Sequence (whole entry): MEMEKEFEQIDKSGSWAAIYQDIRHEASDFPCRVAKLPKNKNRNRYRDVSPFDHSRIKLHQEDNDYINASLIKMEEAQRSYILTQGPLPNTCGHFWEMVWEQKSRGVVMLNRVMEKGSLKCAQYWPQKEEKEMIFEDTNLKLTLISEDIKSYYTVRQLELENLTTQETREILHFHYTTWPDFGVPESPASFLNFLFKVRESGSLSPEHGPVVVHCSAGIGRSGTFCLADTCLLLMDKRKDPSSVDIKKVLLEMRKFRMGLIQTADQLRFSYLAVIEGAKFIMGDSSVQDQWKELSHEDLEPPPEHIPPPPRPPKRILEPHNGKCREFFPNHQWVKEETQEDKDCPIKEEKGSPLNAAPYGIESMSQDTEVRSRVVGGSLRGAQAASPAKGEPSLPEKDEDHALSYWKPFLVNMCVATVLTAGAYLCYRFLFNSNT
- procedure_summary: Inhibition of human recombinant PTP-1B using IR5 insulin receptor residues as substrate at 5 uM after 30 mins by malachite green assay
Unit % implied. Number only.

Take a look at these entries with their results.
>>> readout_number("C=C1CC[C@@H]2[C@](C)(CCC[C@]2(C)NC(N)=O)[C@H]1CC[C@H](C)CCO")
25.9
>>> readout_number("C=C1CC[C@@H]2[C@](C)(CCC[C@]2(C)C(=O)O)[C@H]1CC[C@H](C)CCO")
19.2
>>> readout_number("C=C1CC[C@@H]2[C@](C)(CCC[C@]2(C)NC(N)=O)[C@H]1CC[C@H](C)CNC(N)=O")
37.3
>>> readout_number("C=C1CC[C@@H]2[C@](C)(CCC[C@]2(C)NC(N)=O)[C@H]1CC[C@H](C)C/C=N/OC(C)=O")
31.7

INPUT: Requested field: inhibition. Item: C=C1CC[C@@H]2[C@](C)(CCC[C@]2(C)NC(N)=O)[C@H]1CC[C@H](C)C/C=N/O
OUTPUT: 38.2
